Items are presented alongside their recorded shrunken log2 fold change.
- Tested on: Escherichia coli TOP10
- test.summary: shrunken log2 fold change of peptide-encoding DNA abundance (4.5 h post-induction vs induction); higher = less antimicrobial activity (less host growth inhibition)
- assay.setup: time post-induction: 4.5 h; library: site-saturation at positions 5, 18, 19, 20

Record excerpt, results attached:
RRIRIRPPRLPRPRPRPKFNPRP : -1.09
RRIRNRPPRLPRPRPRPATDPRP : 0.14
RRIRARPPRLPRPRPRPELVPRP : 1.3
RRIRRRPPRLPRPRPRPRRSPRP : 0.516
RRIRKRPPRLPRPRPRPSNFPRP : -0.198

According to the records, this sequence `RRIRDRPPRLPRPRPRPSKTPRP` displays shrunken log2 fold change of 0.0521

Lab book: shrunken log2 fold change of `RRIRYRPPRLPRPRPRPYTWPRP` noted as -0.571

Summary for this sequence, `RRIRSRPPRLPRPRPRPQLRPRP` : shrunken log2 fold change is 0.123

// recorded shrunken log2 fold change for `RRIRTRPPRLPRPRPRPICPPRP` : -0.0534

Memo: `RRIRMRPPRLPRPRPRPRKQPRP` , reported shrunken log2 fold change: 0.938

For `RRIRFRPPRLPRPRPRPAAIPRP` the sequence record lists shrunken log2 fold change as 1.19

* * *

- System: Escherichia coli TOP10
- test.summary: shrunken log2 fold change of peptide-encoding DNA abundance (4.5 h post-induction vs induction); higher = less antimicrobial activity (less host growth inhibition)
- assay.setup: time post-induction: 4.5 h; library: site-saturation at positions 5, 18, 19, 20
outcome.measure: shrunken log2 fold change
Field format: numeric only.

Here is how some sequences turned out for shrunken log2 fold change.
RRIRERPPRLPRPRPRPDDPPRP : -0.157
RRIRLRPPRLPRPRPRPLIRPRP : -0.547

Lab note: `RRIRWRPPRLPRPRPRPQIMPRP` gave shrunken log2 fold change of -0.0336

* * *

- Test system: Escherichia coli TOP10
- test.summary: shrunken log2 fold change of peptide-encoding DNA abundance (4.5 h post-induction vs induction); higher = less antimicrobial activity (less host growth inhibition)
- assay.setup: time post-induction: 4.5 h; library: site-saturation at positions 5, 18, 19, 20
outcome.measure: shrunken log2 fold change

Solved entries (count: 5):
RRIRQRPPRLPRPRPRPRNNPRP : -0.173
RRIRCRPPRLPRPRPRPNRRPRP : -0.0599
RRIRGRPPRLPRPRPRPSCEPRP : 0.507
RRIRVRPPRLPRPRPRPVCGPRP : 0.211
RRIRHRPPRLPRPRPRPHKTPRP : 0.00711

Then this sequence:
Lab book: shrunken log2 fold change of `RRIRPRPPRLPRPRPRPFVTPRP` noted as -0.102

* * *

- System: Escherichia coli TOP10;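 also: peptides expressed intracellularly from a pBAD plasmid library in pooled LB shake-flask culture, induced with 0.3% L-arabinose, DNA abundance read by NGS, three biological replicates, DESeq2 with apeglm shrinkage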
- test.summary: shrunken log2 fold change of peptide-encoding DNA abundance (4.5 h post-induction vs induction); higher = less antimicrobial activity (less host growth inhibition)
- assay.setup: time post-induction: 4.5 h; library: site-saturation at positions 5, 18, 19, 20
Parameter shrunken log2 fold change: see the listing below.

Some solved entries appear below for comparison.
RRIRPRPPRLPRPRPRPYEPPRP : -0.317
RRIRLRPPRLPRPRPRPMPVPRP : 0.132
RRIRLRPPRLPRPRPRPCREPRP : 0.251
RRIRYRPPRLPRPRPRPPLWPRP : 0.277
RRIRWRPPRLPRPRPRPKWQPRP : 0.0119
RRIRNRPPRLPRPRPRPGPSPRP : 0.516

Noted for `RRIRYRPPRLPRPRPRPATEPRP` : its shrunken log2 fold change reads 0.0247

get_value(item= `RRIRERPPRLPRPRPRPTQQPRP` , readout=shrunken log2 fold change) returns 0.0931
